Exercise: for every item that follows, state its recorded DC50.
system_under_test: IKZF2 (Homo sapiens (Human), UniProt Q96SW2+Q9UKS7)
Sequence (Q9UKS7 whole entry): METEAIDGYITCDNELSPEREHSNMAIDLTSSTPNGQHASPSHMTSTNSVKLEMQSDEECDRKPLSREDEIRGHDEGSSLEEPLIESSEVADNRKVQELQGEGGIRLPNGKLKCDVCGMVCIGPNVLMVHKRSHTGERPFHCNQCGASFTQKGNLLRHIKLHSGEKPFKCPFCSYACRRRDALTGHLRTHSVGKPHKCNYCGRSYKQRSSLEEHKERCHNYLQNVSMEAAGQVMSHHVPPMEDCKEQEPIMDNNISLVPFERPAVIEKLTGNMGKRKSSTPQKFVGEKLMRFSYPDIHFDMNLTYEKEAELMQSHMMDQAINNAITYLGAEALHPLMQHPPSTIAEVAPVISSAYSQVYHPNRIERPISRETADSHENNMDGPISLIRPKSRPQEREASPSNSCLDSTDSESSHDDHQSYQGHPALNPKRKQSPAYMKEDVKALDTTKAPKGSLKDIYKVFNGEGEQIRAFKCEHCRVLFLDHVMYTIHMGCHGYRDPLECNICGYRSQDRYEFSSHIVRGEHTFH
Sequence (Q96SW2 whole entry): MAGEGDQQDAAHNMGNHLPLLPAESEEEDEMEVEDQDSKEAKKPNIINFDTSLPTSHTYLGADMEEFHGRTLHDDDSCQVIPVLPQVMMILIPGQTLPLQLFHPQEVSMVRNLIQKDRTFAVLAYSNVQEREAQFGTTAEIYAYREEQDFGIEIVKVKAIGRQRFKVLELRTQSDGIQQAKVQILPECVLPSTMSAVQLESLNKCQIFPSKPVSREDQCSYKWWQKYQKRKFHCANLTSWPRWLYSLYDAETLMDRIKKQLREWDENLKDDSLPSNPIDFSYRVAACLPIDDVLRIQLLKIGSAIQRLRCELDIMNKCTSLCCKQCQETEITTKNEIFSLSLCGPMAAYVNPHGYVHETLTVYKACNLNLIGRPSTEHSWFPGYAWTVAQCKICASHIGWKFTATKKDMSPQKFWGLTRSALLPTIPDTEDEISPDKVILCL
Sequence (Q16531 whole entry partner): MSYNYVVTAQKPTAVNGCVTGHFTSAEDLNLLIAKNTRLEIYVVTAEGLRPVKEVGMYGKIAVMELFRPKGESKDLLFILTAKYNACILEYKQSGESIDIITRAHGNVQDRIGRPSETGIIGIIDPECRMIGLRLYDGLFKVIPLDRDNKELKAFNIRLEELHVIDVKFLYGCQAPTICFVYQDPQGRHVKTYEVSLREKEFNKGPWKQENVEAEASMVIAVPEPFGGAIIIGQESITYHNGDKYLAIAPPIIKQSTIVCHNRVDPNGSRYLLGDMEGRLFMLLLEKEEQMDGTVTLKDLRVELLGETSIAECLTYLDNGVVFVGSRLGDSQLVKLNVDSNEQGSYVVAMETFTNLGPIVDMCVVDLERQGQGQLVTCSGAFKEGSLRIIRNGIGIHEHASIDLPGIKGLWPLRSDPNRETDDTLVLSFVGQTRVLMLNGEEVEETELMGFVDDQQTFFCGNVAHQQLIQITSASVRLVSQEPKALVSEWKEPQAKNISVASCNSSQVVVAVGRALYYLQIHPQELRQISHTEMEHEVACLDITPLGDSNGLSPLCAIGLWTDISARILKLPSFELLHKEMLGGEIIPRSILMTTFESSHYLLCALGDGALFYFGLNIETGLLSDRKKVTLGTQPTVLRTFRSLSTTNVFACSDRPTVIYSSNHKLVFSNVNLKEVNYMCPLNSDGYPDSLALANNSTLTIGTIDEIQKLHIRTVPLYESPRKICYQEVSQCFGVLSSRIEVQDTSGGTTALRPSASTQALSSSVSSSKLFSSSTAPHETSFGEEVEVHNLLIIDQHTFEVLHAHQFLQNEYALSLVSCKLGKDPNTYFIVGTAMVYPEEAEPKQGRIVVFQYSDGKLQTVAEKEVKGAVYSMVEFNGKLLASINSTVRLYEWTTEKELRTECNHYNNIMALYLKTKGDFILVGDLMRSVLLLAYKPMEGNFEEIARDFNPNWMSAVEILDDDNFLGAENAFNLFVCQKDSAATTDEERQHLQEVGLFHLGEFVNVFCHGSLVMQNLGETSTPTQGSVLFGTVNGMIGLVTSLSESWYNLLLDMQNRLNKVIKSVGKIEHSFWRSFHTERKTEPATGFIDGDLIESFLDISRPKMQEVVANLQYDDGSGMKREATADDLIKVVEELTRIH
protocol: IKZF2 HiBiT Assay (Jurkat-IKZF2-HiBiT cell line)
Type: cell-based
condition_summary: Jurkat-IKZF2-HiBiT cells, 24 hours; read-out: HiBit assay degradation analysis DC50

q: Please give the measured DC50 for this compound: O=C1CC[C@H](N2Cc3c(ccc4c3OCC43CCN(Cc4ccc5cn(C6COC6)nc5c4)CC3)C2=O)C(=O)N1 [Compound A285]
a: < 50 nM

q: Do the same for [2H]C([2H])([2H])n1cc2ccc(CN3CCC4(CC3)COc3c4ccc4c3CN([C@H]3CCC(=O)NC3=O)C4=O)cc2n1 [Compound A301] please
a: < 50 nM

q: Do the same for Cn1cc(CN2CCC3(CC2)COc2c3ccc3c2CN(C2CCC(=O)NC2=O)C3=O)c(-c2ccccc2)n1 (stereo not shown) [Compound A256] please
a: > 500 nM

q: Do the same for O=C1CCC(N2Cc3c(ccc4c3OCC43CCN(CC4CCC(F)(F)CC4)CC3)C2=O)C(=O)N1 (stereo not shown) [Compound A17] please
a: > 500 nM

q: Do the same for Cn1cc(CN2CCC3(CC2)COc2c3ccc3c2CN(C2CCC(=O)NC2=O)C3=O)cn1 (stereo not shown) [Compound A228] please
a: > 500 nM

q: Do the same for O=C1CCC(N2Cc3c(ccc4c3OCC43CCN(Cc4cccc5c4CCCC5)CC3)C2=O)C(=O)N1 (stereo not shown) [Compound A208] please
a: < 50 nM

q: Do the same for O=C1CCC(N2Cc3c(ccc4c3OCC43CCN(Cc4ccc5c(cnn5CCO)c4)CC3)C2=O)C(=O)N1 (stereo not shown) [Compound A344] please
a: > 500 nM

---

system_under_test: IKZF1 (Homo sapiens (Human), UniProt Q13422+Q96SW2)
Sequence (Q13422 whole entry): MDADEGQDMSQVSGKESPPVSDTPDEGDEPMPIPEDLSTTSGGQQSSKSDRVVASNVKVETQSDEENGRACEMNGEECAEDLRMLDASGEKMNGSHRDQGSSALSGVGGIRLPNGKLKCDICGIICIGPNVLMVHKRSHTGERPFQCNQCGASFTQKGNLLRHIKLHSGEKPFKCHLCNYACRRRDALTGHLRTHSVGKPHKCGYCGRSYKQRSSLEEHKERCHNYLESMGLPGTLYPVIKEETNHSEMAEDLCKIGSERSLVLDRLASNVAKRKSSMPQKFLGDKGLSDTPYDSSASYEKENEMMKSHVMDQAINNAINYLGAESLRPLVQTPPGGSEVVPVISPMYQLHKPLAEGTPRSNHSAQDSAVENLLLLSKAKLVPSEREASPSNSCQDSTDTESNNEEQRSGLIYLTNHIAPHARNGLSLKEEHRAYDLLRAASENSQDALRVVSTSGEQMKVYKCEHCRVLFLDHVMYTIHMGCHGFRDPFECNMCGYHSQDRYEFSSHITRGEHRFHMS
Sequence (Q96SW2 whole entry): as the sequence (Q96SW2 whole entry) above
Sequence (Q16531 whole entry partner): as the sequence (Q16531 whole entry partner) above
protocol: IKZF1 HiBit Assay (HEK293T Flp-in-HiBiT-IKZF1 stable cell line)
Assay type: cell-based
condition_summary: HEK-293T; HEK293T Flp-in-HiBiT-IKZF1 cells, 6 hrs; read-out: IKZF1 HiBit degradation Dmax
reported_metric: Dmax

q: Please give the measured Dmax for this molecule: O=C1CC[C@H](N2Cc3c(ccc4c3OCC43CCN(Cc4cnn(-c5ccc(Cl)cc5)c4)CC3(F)F)C2=O)C(=O)N1 (some centres unmarked) [Compound B30]
a: < 20%

q: Do the same for O=C1CCC(N2Cc3c(ccc4c3OCC43CCN(Cc4ccccc4)CC3F)C2=O)C(=O)N1 (centres unmarked) [Compound B23] please
a: < 20%

q: Do the same for O=C1CCC(N2Cc3c(ccc4c3OCC43CCN(Cc4ccccc4)CC3(F)F)C2=O)C(=O)N1 (centres unmarked) [Compound B25] please
a: 20 to 40%

q: Do the same for O=C1CC[C@H](N2Cc3c4c(cc(Cl)c3C2=O)C2(CCN(Cc3cccc5cn[nH]c35)CC2)CO4)C(=O)N1 [Compound B18] please
a: < 20%

q: Do the same for [2H]C([2H])(c1ccc2cn(C)nc2c1)N1CCC2(CC1)COc1c2ccc2c1CN([C@H]1CCC(=O)NC1=O)C2=O [Compound B7] please
a: < 20%

q: Do the same for [2H]C([2H])(c1cccc(-c2cnn(C)c2)c1)N1CCC2(COc3c2ccc2c3CN([C@H]3CCC(=O)NC3=O)C2=O)C(F)(F)C1 (some centres unmarked) [Compound B50] please
a: < 20%

q: Do the same for O=C1CC[C@H](N2Cc3c(ccc4c3OCC43CCN(Cc4cc(-c5ccc(Cl)cc5)no4)CC3)C2=O)C(=O)N1 [Compound B2] please
a: 20 to 40%

q: Do the same for O=C1CC[C@H](N2Cc3c(ccc4c3OC[C@@]43CCN(Cc4cccc(-c5cnn(C6COC6)c5)c4)CC3(F)F)C2=O)C(=O)N1 [Compound B54] please
a: 20 to 40%

q: Do the same for Cc1cc2c(c3c1C(=O)N([C@H]1CCC(=O)NC1=O)C3)OCC21CCN(Cc2cccc(-c3cnn(C)c3)c2)CC1 [Compound B20] please
a: < 20%

q: Do the same for Cn1cc(-c2cccc(CN3CC[C@@]4(COc5c4ccc4c5CN([C@H]5CCC(=O)NC5=O)C4=O)C(F)(F)C3)c2)cn1 [Compound B52] please
a: < 20%

q: Do the same for O=C1CC[C@H](N2Cc3c4c(cc(Cl)c3C2=O)C2(CCN(Cc3ccccc3)CC2)CO4)C(=O)N1 [Compound B17] please
a: < 20%

q: Do the same for O=C1CC[C@H](N2Cc3c(ccc4c3OCC43CCN(Cc4ccc5c(c4)C(=O)NC5)CC3(F)F)C2=O)C(=O)N1 (some centres unmarked) [Compound B31] please
a: < 20%

q: Do the same for O=C1CCC(N2Cc3c(ccc4c3OCC43CCN(Cc4ccccc4)CC3O)C2=O)C(=O)N1 (centres unmarked) [Compound B22] please
a: < 20%

q: Do the same for Cn1cc(-c2cccc(CN3CCC4(COc5c4ccc4c5CN(C5CCC(=O)NC5=O)C4=O)C(F)(F)C3)c2)cn1 (centres unmarked) [Compound B26] please
a: < 20%

---

Exercise: for every item that follows, state its recorded IC50.
system_under_test: His tagged CRBN+DDB−DLS7+CXU4 (Homo sapiens (Human), UniProt Q96SW2)
Sequence (Q96SW2 whole entry): as the sequence (Q96SW2 whole entry) above
Sequence (Q16531 whole entry partner): as the sequence (Q16531 whole entry partner) above
protocol: IC50 Measurements for Binding to CRBN/DDBI (HTRF)
condition_summary: Cy5-labeled Thalidomide probe, one hour incubation

q: Please give the measured IC50 for this molecule: O=C1CCC(N2Cc3c(ccc4c3OCC43CCN(Cc4ccccc4)CC3F)C2=O)C(=O)N1 (stereo not shown)
a: 500 to 1000 nM

q: Do the same for Cn1cc(-c2cccc(CN3CCC4(COc5c4ccc4c5CN([C@H]5CCC(=O)NC5=O)C4=O)C(F)(F)C3)c2)cn1 (stereo partly shown) please
a: 100 to 500 nM

q: Do the same for O=C1CC[C@H](N2Cc3c(ccc4c3OCC43CCN(Cc4cc(-c5ccc(Cl)cc5)no4)CC3)C2=O)C(=O)N1 please
a: 1000 to 5000 nM

q: Do the same for [2H]C([2H])([2H])n1cc(-c2cccc(CN3CCC4(COc5c4ccc4c5CN([C@H]5CCC(=O)NC5=O)C4=O)C(F)(F)C3)c2)cn1 (stereo partly shown) please
a: 100 to 500 nM

q: Do the same for [2H]C([2H])(c1cccc(-c2cnn(C([2H])([2H])[2H])c2)c1)N1CCC2(COc3c2ccc2c3CN([C@H]3CCC(=O)NC3=O)C2=O)C(F)(F)C1 (stereo partly shown) please
a: 100 to 500 nM

q: Do the same for Cn1cc2cccc(CN3CCC4(COc5c4ccc4c5CN([C@H]5CCC(=O)NC5=O)C4=O)C(F)(F)C3)c2n1 (stereo partly shown) please
a: 100 to 500 nM

q: Do the same for O=C1CC[C@H](N2Cc3c4c(cc(Cl)c3C2=O)C2(CCN(Cc3cccc5cn[nH]c35)CC2)CO4)C(=O)N1 please
a: 100 to 500 nM

q: Do the same for [2H]C1([2H])Oc2c(ccc3c2CN(C2CCC(=O)NC2=O)C3=O)C12CCN(Cc1cccc(-c3cnn(C)c3)c1)CC2 (stereo not shown) please
a: 100 to 500 nM

q: Do the same for O=C1CC[C@H](N2Cc3c(ccc4c3OCC43CCN(Cc4cnn(-c5ccc(Cl)cc5)c4)CC3(F)F)C2=O)C(=O)N1 (stereo partly shown) please
a: 1000 to 5000 nM

q: Do the same for Cn1ncc2cccc(CN3CCC4(COc5c4ccc4c5CN([C@H]5CCC(=O)NC5=O)C4=O)C(F)(F)C3)c21 (stereo partly shown) please
a: 100 to 500 nM

q: Do the same for [2H]C([2H])([2H])n1cc(-c2cccc(CN3CCC4(CC3)COc3c4ccc4c3CN([C@H]3CCC(=O)NC3=O)C4=O)c2)cn1 please
a: 100 to 500 nM

q: Do the same for Cn1cc(-c2cccc(CN3CCC4(CC3)COc3c4cc(C#N)c4c3CN([C@H]3CCC(=O)NC3=O)C4=O)c2)cn1 please
a: 1000 to 5000 nM

q: Do the same for O=C1CC[C@H](N2Cc3c(ccc4c3OCC43CCN(Cc4ccc5c(c4)C(=O)NC5)CC3(F)F)C2=O)C(=O)N1 (stereo partly shown) please
a: 100 to 500 nM

---

system_under_test: IKZF2 (Homo sapiens (Human), UniProt Q96SW2+Q9UKS7)
protocol: IKZF2 HiBiT Assay (Jurkat-IKZF2-HiBiT cell line)
Type: cell-based
condition_summary: Jurkat-IKZF2-HiBiT cells, 24 hours; read-out: HiBit assay degradation analysis DC50
reported_metric: DC50

q: Please give the measured DC50 for this compound: O=C1CCC(N2Cc3c(ccc4c3OCC43CCN(Cc4ccc5c(c4)NC(=O)CO5)CC3)C2=O)C(=O)N1 (stereo not drawn)
a: 0.05 to 0.2 µM

q: Do the same for O=C1CCC(N2Cc3c(ccc4c3OCC43CCN(Cc4cnn(Cc5ccccc5)c4)CC3)C2=O)C(=O)N1 (stereo not drawn) please
a: < 0.05 µM

q: Do the same for O=C1CCC(N2Cc3c(ccc4c3OCC43CCN(Cc4cncc5ccccc45)CC3)C2=O)C(=O)N1 (stereo not drawn) please
a: > 0.5 µM

q: Do the same for O=C1CCC(N2Cc3c(ccc4c3OCC43CCN(Cc4coc(-c5ccccc5)n4)CC3)C2=O)C(=O)N1 (stereo not drawn) please
a: > 0.5 µM

q: Do the same for O=C1CCC(N2Cc3c(ccc4c3OCC43CCN(Cc4cccc5cnccc45)CC3)C2=O)C(=O)N1 (stereo not drawn) please
a: < 0.05 µM

q: Do the same for Cc1cc(C)cc(CN2CCC3(CC2)COc2c3ccc3c2CN(C2CCC(=O)NC2=O)C3=O)c1 (stereo not drawn) please
a: 0.2 to 0.5 µM

q: Do the same for O=C1CCC(N2Cc3c(ccc4c3OCC43CCN(Cc4cccc(-c5cnco5)c4)CC3)C2=O)C(=O)N1 (stereo not drawn) please
a: < 0.05 µM

q: Do the same for O=C1CCC(N2Cc3c(ccc4c3OCC43CCN(Cc4nc(-c5ccccc5)cs4)CC3)C2=O)C(=O)N1 (stereo not drawn) please
a: > 0.5 µM

q: Do the same for O=C1CCC(N2Cc3c(ccc4c3OCC43CCN(Cc4cccc(OC(F)F)c4)CC3)C2=O)C(=O)N1 (stereo not drawn) please
a: > 0.5 µM

q: Do the same for O=C1CCC(N2Cc3c(ccc4c3OCC43CCN(Cc4cnn(CC5CC5)c4)CC3)C2=O)C(=O)N1 (stereo not drawn) please
a: 0.2 to 0.5 µM

q: Do the same for O=C1CCC(N2Cc3c(ccc4c3OCC43CCN(Cc4cccc(CF)c4)CC3)C2=O)C(=O)N1 (stereo not drawn) please
a: 0.05 to 0.2 µM

q: Do the same for O=C1CCC(N2Cc3c(ccc4c3OCC43CCN(Cc4cccc(-c5cnn(C6CC6)c5)c4)CC3)C2=O)C(=O)N1 (stereo not drawn) please
a: < 0.05 µM

q: Do the same for O=C1CC[C@H](N2Cc3c(ccc4c3OCC43CCN(Cc4cnn(CC5C[C@@H]5c5ccccc5)c4)CC3)C2=O)C(=O)N1 (stereo partly drawn) please
a: < 0.05 µM

q: Do the same for O=C1CCC(N2Cc3c(ccc4c3OCC43CCN(Cc4cnn(Cc5ccccc5F)c4)CC3)C2=O)C(=O)N1 (stereo not drawn) please
a: < 0.05 µM

q: Do the same for O=C1CCC(N2Cc3c(ccc4c3OCC43CCN(Cc4ccc(F)c5ccoc45)CC3)C2=O)C(=O)N1 (stereo not drawn) please
a: > 0.5 µM
